Reference source: patent US20090175860A1

Target: T1, rhesus c-Met on 4MBr-5 cells (rhesus)
T1 construct: whole, on cells
Assay: flow cytometry, Fab titration on rhesus 4MBr-5 cells
Protocol: In order to further characterize the anti-c-Met antibodies, the affinity to full length human and cynomolgus c-Met is determined. GTL16, CHO cells overexpressing cynomolgus c-Met or rhesus 4 MBr-5 cells are washed, trypsinised, and suspended in PBS containing 3% FCS (3% FCS/PBS) at 4-C. 2-5×10⁵ cells/sample are resuspended in 140 μl of 3% FCS//PBS containing 5 μg/ml of purified anti-cMet Fabs or serial dilutions thereof. As a positive control 5 μg/ml of DO24 (mouse IgG2a), anti-human c-Met is used. […]
Hi there, I'd appreciate the recorded pKd for every entry that follows.
Numbers only, as −log10 of the molar value.

Use these answered entries as a reference point.
| binder | pKd |
| --- | --- |
| 04541 (parental anti-cMet Fab antibody) (Fab, V domains shown, carries two C-terminal tags (FLAG and 6xHis)) VH: QVQLQESGPGLVKPGETLSLTCTVSGGSISSSSYYWNWIRQAPGKGLEWIGEIYFGWTYYNPSLKGRVTISVDTSKNQFSLKLSSVTAEDTAVYYCARGYEFHGYTTFDYWGQGTLVTVSS VL: DIELTQPPSVSVAPGQTARISCSGDNIGSYYVYWYQQKPGQAPVLVIYDDNDRPSGIPERFSGSNSGNTATLTISGTQAEDEADYYCQSYDFPSIVFGGGTKLTVLG | 10.00 |
| 04682 (parental anti-cMet Fab antibody) (Fab, V domains shown, carries two C-terminal tags (FLAG and 6xHis)) VH: QVQLVQSGAEVKKPGESLKISCKGSGYSFTNYGIAWVRQMPGKGLEWMGIIYPSDSYTNYSPSFQGQVTISADKSISTAYLQWSSLKASDTAMYYCARMSYDYQHQAPSMDSWGQGTLVTVSS VL: DIVLTQPPSVSGAPGQRVTISCSGSSSNIGSNYVIWYQQLPGTAPKLLIYDDTNRPSGVPDRFSGSKSGTSASLAITGLQSEDEADYYCSTYDNYQAGWVFGGGTKLTVLG | 9.52 |
| 04536 (parental anti-cMet Fab antibody) (Fab, V domains shown, carries two C-terminal tags (FLAG and 6xHis)) VH: QVQLVQSGAEVKKPGASVKVSCKASGYTFTGYYMNWVRQAPGQGLEWMGIINPWTGNTNYAQKFQGRVTMTRDTSISTAYMELSSLRSEDTAVYYCARDPGFFYYTPSDLWGQGTLVTVSS VL: DIELTQPPSVSVAPGQTARISCSGDSIGNKYVHWYQQKPGQAPVLVIYADSDRPSGIPERFSGSNSGNTATLTISGTQAEDEADYYCQAYDSSMLRVFGGGTKLTVLG | 10.00 |
| 04687 (parental anti-cMet Fab antibody) (Fab, V domains shown, carries two C-terminal tags (FLAG and 6xHis)) VH: QVQLVQSGAEVKKPGSSVKVSCKASGGTFSSYAISWVRQAPGQGLEWMGGIDPFGTANYAQKFQGRVTITADESTSTAYMELSSLRSEDTAVYYCARVYQDVWGQGTLVTVSS VL: DIVMTQSPDSLAVSLGERATINCRSSQSILYGINNNFLGWYQQKPGQPPKLLIYWASTRESGVPDRFSGSGSGTDFTLTISSLQAEDVAVYYCQQYYNHPHTFGQGTKVEIKR | 8.92 |
| 04690 (parental anti-cMet Fab antibody) (Fab, V domains shown, carries two C-terminal tags (FLAG and 6xHis)) VH: QVQLQQSGPGLVKPSQTLSLTCAISGDSVSSNSAAWGWIRQSPGRGLEWLGRIYYRSKWVNDYAVSVKSRITINPDTSKNQFSLQLNSVTPEDTAVYYCARQGAVYPGPYGFDVWGQGTLVTVSS VL: DIELTQPPSVSVAPGQTARISCSGDKLGSYFVYWYQQKPGQAPVLVIYDDDNRPSGIPERFSGSNSGNTATLTISGTQAEDEADYYCQSFGISNFYVFGGGTKLTVLG | 10.00 |

Q: Output pKd of 04537 (parental anti-cMet Fab antibody) (Fab, V domains shown, carries two C-terminal tags (FLAG and 6xHis)) VH: QVQLVQSGAEVKKPGESLKISCKGSGYSFSNYWIGWVRQMPGKGLEWMGFIFPDTSYTRYSPSFQGQVTISADKSISTAYLQWSSLKASDTAMYYCARVKLITDYWGQGTLVTVSS VL: DIELTQPPSVSVAPGQTARISCSGDSLRSYFVSWYQQKPGQAPVLVIYDDDDRPSGIPERFSGSNSGNTATLTISGTQAEDEADYYCASWDTLSDVEVFGGGTKLTVLG
A: 10.00
